- assay_conditions: mouse, in vivo, po, 50 mg/kg
- Description: AUC in mice after oral dose (50 mg/kg)
Below, each entry is listed alongside its reported AUC.
Please reply with the bare figure in ng·h/mL and do not write the unit itself.

Sample records with AUC:
molecule	AUC (ng·h/mL)
C[C@@H]1[C@@H](N)CN1c1cc2c(cc1F)c(=O)c(C(=O)O)cn2-c1ccc(F)cc1F	35900
C[C@@H]1[C@@H](N)CN1c1c(F)cc2c(=O)c(C(=O)O)cn(C3CC3)c2c1F (stereo in doubt; 22b)	13600
C[C@H]1[C@H](N)CN1c1c(F)cc2c(=O)c(C(=O)O)cn(C3CC3)c2c1F (single isomer, unassigned)	21800
CC1C(N)CN1c1c(F)cc2c(=O)c(C(=O)O)cn3c2c1OC[C@@H]3C (single isomer, unassigned)	2300
C[C@H](N)C(=O)N[C@@H](C)C(=O)N[C@@H]1CN(c2nc3c(cc2F)c(=O)c(C(=O)O)cn3C2CC2)[C@H]1C	19200
C[C@H](N)C(=O)N[C@@H]1CN(c2nc3c(cc2F)c(=O)c(C(=O)O)cn3C2CC2)[C@H]1C	28800

In: # get_value(readout='AUC', item= C[C@H]1[C@H](N)CN1c1nc2c(cc1F)c(=O)c(C(=O)O)cn2-c1ccc(F)cc1F (single isomer, unassigned) )
Out: 38200

In: One more molecule: O=C(O)c1cn(C2CC2)c2cc(N3CCNCC3)c(F)cc2c1=O
Out: 2300

In: Another molecule: C[C@@H]1[C@@H](N)CN1c1cc2c(cc1F)c(=O)c(C(=O)O)cn2C1CC1
Out: 2200

In: Next record, please: C[C@@H]1[C@@H](N)CN1c1nc2c(cc1F)c(=O)c(C(=O)O)cn2C1CC1
Out: 22300

In: How about C[C@H]1[C@H](N)CN1c1nc2c(cc1F)c(=O)c(C(=O)O)cn2C1CC1 (single isomer, unassigned) ?
Out: 19200

In: And the next one, C[C@@H]1[C@@H](N)CN1c1c(F)cc2c(=O)c(C(=O)O)cn(-c3ccc(F)cc3)c2c1F ?
Out: 40900

In: // query: C[C@@H]1[C@@H](N)CN1c1c(F)c(N)c2c(=O)c(C(=O)O)cn(C3CC3)c2c1F
Out: 11400

In: Note, next up: C[C@H]1[C@H](N)CN1c1c(F)cc2c(=O)c(C(=O)O)cn(C3CC3)c2c1Cl (single isomer, unassigned)
Out: 5200

In: C[C@@H](N)C(=O)N[C@@H]1CN(c2nc3c(cc2F)c(=O)c(C(=O)O)cn3C2CC2)[C@H]1C ?
Out: 400

In: Same for C[C@@H]1[C@@H](NC(=O)[C@@H](C)N)CN1c1nc2c(cc1F)c(=O)c(C(=O)O)cn2C1CC1
Out: 0

In: C[C@H]1COc2c(N3CC(C)(N)C3)c(F)cc3c(=O)c(C(=O)O)cn1c23 , same question.
Out: 8500
